- EXPERIMENT DESCRIPTION: Acid-catalyzed hydrolysis kinetics of model azido-acetal 4 and its reduced form 5
- Format: physicochemical
- RUN CONDITIONS: buffer, pH 5
OUTCOME MEASURE: half-life (min)
Return type: number; implicit unit min.

Query :: Which half-life is reported for this molecule? COC(=O)NCCOC(OCCNC(=O)OC)c1ccc(N=[N+]=[N-])cc1 [Compound 4]
Result :: 37.1

###

- EXPERIMENT DESCRIPTION: Acid-catalyzed hydrolysis kinetics of model azido-acetal 4 and its reduced form 5
- Type: physicochemical
- RUN CONDITIONS: pH 7.4
OUTCOME MEASURE: half-life (days)
Return type: number; implicit unit days.

Query :: Which half-life is reported for this compound? COC(=O)NCCOC(OCCNC(=O)OC)c1ccc(N=[N+]=[N-])cc1 [Compound 4]
Result :: 21.1
